A collection of molecules and their measured pIC50
System: COX-2
assay method text: COX-2 activity in vitro (PGE2 formed, ELISA)
Type: biochemical, human or murine
conditions used: recombinant enzyme, arachidonic acid 10 μM, pH 8.0; read-out: COX II ID50
Note on units: pIC50 is unitless, being -log10 of a concentration expressed in mol/L.

>>> test_value("NS(=O)(=O)c1ccc(-c2nc(CC(=O)O)oc2-c2ccc(Cl)cc2)cc1")
5.15

pIC50 for "COc1ccc(-c2oc(C)nc2-c2ccc(S(N)(=O)=O)cc2)cc1F" is 6.30

Entry "NS(=O)(=O)c1ccc(-c2oc(S)nc2-c2ccccc2)cc1" , pIC50 reported as 6.30

Value of measured pIC50 for the entry "NS(=O)(=O)c1ccc(-c2nc(CC(=O)O)oc2-c2ccc(F)c(F)c2)cc1" : 4.22
